- Tested on: T1, rat alpha CGRP (SEQ ID NO: 82) (rat)
- T1 construct: also called rat αCGRP; rat α-CGRP
- T1 peptide: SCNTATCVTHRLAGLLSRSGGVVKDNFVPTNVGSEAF
- Run description: SPR, 37 C, mutein captured, CGRP analyte
In this section, each of the binders is paired with its reported Kd.

Would you please look over these solved cases?
lipocalin mutein SEQ ID NO: 14 (designed binder, biotinylated by NHS chemistry for capture in SPR) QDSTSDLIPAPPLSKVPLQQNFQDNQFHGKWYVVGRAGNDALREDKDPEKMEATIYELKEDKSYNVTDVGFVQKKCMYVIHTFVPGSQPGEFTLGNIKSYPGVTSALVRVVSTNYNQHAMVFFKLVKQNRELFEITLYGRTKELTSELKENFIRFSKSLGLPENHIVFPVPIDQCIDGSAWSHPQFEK: 0.29 nM
lipocalin mutein SEQ ID NO: 20 (designed binder, biotinylated by NHS chemistry for capture in SPR) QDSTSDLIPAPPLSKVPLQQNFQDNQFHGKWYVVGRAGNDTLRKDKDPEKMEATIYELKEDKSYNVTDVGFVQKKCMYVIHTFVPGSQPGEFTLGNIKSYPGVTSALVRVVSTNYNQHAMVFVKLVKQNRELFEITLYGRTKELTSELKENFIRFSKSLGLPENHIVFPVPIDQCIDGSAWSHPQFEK: 0.028 nM

Proceed to the following item.
Which Kd is listed for lipocalin mutein SEQ ID NO: 17 (designed binder, biotinylated by NHS chemistry for capture in SPR) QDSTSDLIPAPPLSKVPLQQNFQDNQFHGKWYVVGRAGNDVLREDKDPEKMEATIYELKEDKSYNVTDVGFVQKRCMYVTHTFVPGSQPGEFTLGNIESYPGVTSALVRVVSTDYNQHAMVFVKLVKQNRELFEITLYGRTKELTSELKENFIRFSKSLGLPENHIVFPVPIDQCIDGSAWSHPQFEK ? 0.031 nM
